# experimental_target: CCKA (Cavia porcellus, UniProt Q63931)
# Construct: The pancreatata were removed from male guinea-pigs; from tissue; host or cells: pancreas of male Dunkin Hartley guinea pigs, membranes
# Sequence (Q63931 1-430): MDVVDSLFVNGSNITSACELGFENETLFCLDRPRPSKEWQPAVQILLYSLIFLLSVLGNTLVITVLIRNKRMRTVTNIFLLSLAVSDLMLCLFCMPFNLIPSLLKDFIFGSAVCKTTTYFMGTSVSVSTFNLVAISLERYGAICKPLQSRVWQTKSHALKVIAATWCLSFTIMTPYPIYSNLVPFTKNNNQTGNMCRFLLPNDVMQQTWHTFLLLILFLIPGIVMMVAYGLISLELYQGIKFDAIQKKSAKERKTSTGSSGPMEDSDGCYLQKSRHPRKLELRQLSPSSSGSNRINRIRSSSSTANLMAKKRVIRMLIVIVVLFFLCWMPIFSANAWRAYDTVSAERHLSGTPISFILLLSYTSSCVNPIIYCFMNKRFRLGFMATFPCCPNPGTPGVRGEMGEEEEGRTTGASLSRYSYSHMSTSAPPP
# assay_procedure: CCKA binding assay, guinea pig pancreas membranes ([125I]-CCK8(S))
# cond: [125I]-CCK8(S) 200 pM, 0.375 μM PD134,308, 150 min at 21±3° C., pH 7.2, read-out: pKi (Guinea pig pancreas) (converted)
metric: Ki (µM)

| molecule | experimental_target | output_unit | result_value |
| --- | --- | --- | --- |
| COc1ccc(CN2C(=O)[C@@H](CC34CC5CC(CC(C5)C3)C4)N(C(C)=O)[C@H](C(=O)O)CC(=O)c3ccccc32)cc1 | CCKA (Cavia porcellus, UniProt Q63931) | µM | 3.16 |
| Nc1cccc(CN2C(=O)C(CC34CC5CC(CC(C5)C3)C4)N(C(=O)CC(=O)O)CCC(=O)c3ccccc32)c1 (racemic) | CCKA (Cavia porcellus, UniProt Q63931) | µM | 7.94 |
| CC(=O)N1[C@H](CC23CC4CC(CC(C4)C2)C3)C(=O)N(C)c2ccccc2C(=O)C[C@H]1C(=O)O | CCKA (Cavia porcellus, UniProt Q63931) | µM | 6.31 |
| CC(=O)N1CCC(=O)c2ccccc2N(Cc2ccccc2)C(=O)C1CC12CC3CC(CC(C3)C1)C2 (racemic) | CCKA (Cavia porcellus, UniProt Q63931) | µM | 2.51 |
